Catalogue of ratio of amounts bound (Z=Y/X) readings, one per entry.
measured target: T1, CD3 epsilon homodimer protein (UniProt P07766 23-126)
T1 construct: also called CD3 (CD3 epsilon)
T1 sequence (P07766 23-126): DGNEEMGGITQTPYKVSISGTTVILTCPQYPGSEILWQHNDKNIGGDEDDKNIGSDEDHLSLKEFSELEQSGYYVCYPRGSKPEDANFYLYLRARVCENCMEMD
assay notes: SPR Biacore T200, CD3e homodimer on chip, vs unaltered GLS3000 antibody
The answer should be a number; do not append a unit.

GLS3000 N53Y (antibody, name in Kabat numbering, V domains shown, one-arm IgG as m2) VH: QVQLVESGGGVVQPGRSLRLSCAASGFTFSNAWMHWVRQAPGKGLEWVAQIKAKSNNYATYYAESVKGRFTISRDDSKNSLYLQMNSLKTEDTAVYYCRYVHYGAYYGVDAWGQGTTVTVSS VL: DIVMTQSPLSLPVTPGEPASISCRSSQSLVHSNRNTYLHWYQQKPGQAPRLLIYKVSYRFSGVPDRFSGSGSGTDFTLKISRVEAEDVGVYYCGQGTQVPYTFGQGTKLEIK : 0.67
GLS3000 S56W (antibody, name in Kabat numbering, V domains shown, one-arm IgG as m2) VH: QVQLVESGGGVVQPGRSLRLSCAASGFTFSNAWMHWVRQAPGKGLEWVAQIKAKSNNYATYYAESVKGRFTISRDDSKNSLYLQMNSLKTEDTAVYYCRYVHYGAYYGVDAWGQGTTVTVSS VL: DIVMTQSPLSLPVTPGEPASISCRSSQSLVHSNRNTYLHWYQQKPGQAPRLLIYKVSNRFWGVPDRFSGSGSGTDFTLKISRVEAEDVGVYYCGQGTQVPYTFGQGTKLEIK : 1.38

# next binder below
Entry GLS3000 S52Y (antibody, name in Kabat numbering, V domains shown, one-arm IgG as m2) VH: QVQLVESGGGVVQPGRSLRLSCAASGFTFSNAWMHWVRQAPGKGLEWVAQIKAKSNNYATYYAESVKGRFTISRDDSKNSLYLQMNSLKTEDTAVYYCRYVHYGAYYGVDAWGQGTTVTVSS VL: DIVMTQSPLSLPVTPGEPASISCRSSQSLVHSNRNTYLHWYQQKPGQAPRLLIYKVYNRFSGVPDRFSGSGSGTDFTLKISRVEAEDVGVYYCGQGTQVPYTFGQGTKLEIK has what ratio of amounts bound (Z=Y/X)? 1.12

Hello, the source for this data is patent US20210388087A1, in case you need it.
